- System tested: Neuropeptide Y receptor type 4 (Homo sapiens, UniProt P50391)
- Sequence (P50391 whole entry): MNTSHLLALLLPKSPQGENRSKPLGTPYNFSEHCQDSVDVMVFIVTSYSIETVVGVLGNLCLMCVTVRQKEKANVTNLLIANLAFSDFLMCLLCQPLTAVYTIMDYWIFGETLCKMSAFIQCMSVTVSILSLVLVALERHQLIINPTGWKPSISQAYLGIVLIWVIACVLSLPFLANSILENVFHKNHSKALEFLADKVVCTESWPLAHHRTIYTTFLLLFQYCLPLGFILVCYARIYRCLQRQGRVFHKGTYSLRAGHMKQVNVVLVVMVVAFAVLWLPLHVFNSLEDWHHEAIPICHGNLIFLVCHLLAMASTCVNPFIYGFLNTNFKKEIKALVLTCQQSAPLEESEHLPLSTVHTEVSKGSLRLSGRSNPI
- Test: Agonist activity at human Y4R expressed in HEK293T cells co-expressing ARRB2 assessed as induction of beta-arrestin2 recruitment measured for 40 mins by D-luciferin based luminescence assay
- Type: cell-based, HEK-293T
- Run parameters: read-out: pEC50 (converted)
Peptide text beside a SMILES is read from it.
# Lookup of reported EC50 keyed by entry

CC(C)C[C@H](NC(=O)[C@@H](N)CCCNC(=N)N)C(=O)N[C@@H](CCCNC(=N)N)C(=O)N[C@H](Cc1ccc(O)cc1)C(N)=O ... > 31.6 µM

Problem: Give the measured EC50 for CC(=O)N[C@@H](CCCNC(=N)N)C(=O)N[C@@H](Cc1ccc(O)cc1)C(=O)N[C@@H](CCCNC(=N)N)C(=O)N[C@@H](CC(C)C)C(=O)N[C@@H](CCCNC(=N)N)C(=O)N[C@@H](Cc1ccc(O)cc1)C(N)=O
Result: 0.112 µM

Problem: Give the measured EC50 for N=C(N)NCCC[C@H](NC(=O)[C@H](Cc1c[nH]c2ccccc12)NC(=O)[C@@H](N)CCCNC(=N)N)C(=O)N[C@@H](Cc1ccc(O)cc1)C(N)=O (H-RWRY-NH2)
Result: > 31.6 µM

Problem: Give the measured EC50 for CC(C)C[C@@H](NC(=O)[C@@H](N)CCCNC(=N)N)C(=O)N[C@@H](CCCNC(=N)N)C(=O)N[C@@H](Cc1ccc(O)cc1)C(N)=O
Result: > 31.6 µM

Problem: Give the measured EC50 for CC(C)C[C@H](NC(=O)[C@@H](N)CCCNC(=N)N)C(=O)N[C@H](CCCNC(=N)N)C(=O)N[C@@H](Cc1ccc(O)cc1)C(N)=O
Result: > 31.6 µM

Problem: Give the measured EC50 for CC(C)C[C@H](NC(=O)[C@H](N)CCCNC(=N)N)C(=O)N[C@@H](CCCNC(=N)N)C(=O)N[C@@H](Cc1ccc(O)cc1)C(N)=O
Result: 4.68 µM

Problem: Give the measured EC50 for CC(=O)N[C@@H](CCCNC(=N)N)C(=O)N[C@@H](Cc1ccc(O)cc1)C(=O)N[C@@H](CCCNC(N)=O)C(=O)N[C@@H](CC(C)C)C(=O)N[C@@H](CCCNC(=N)N)C(=O)N[C@@H](Cc1ccc(O)cc1)C(N)=O
Result: > 31.6 µM

====

- System tested: Neuropeptide Y receptor type 1 (Homo sapiens)
- Sequence (P25929 whole entry): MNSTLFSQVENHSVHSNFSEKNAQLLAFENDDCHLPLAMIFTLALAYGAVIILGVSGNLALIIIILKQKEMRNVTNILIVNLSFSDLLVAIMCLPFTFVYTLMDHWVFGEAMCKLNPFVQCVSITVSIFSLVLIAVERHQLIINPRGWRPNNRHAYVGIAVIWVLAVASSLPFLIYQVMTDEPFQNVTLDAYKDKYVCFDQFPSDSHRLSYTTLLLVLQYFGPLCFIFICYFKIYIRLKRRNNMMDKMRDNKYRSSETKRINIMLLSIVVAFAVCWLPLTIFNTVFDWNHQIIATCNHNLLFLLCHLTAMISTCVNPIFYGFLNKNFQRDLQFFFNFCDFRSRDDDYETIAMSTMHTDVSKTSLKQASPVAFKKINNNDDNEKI
- Test: Displacement of [3H]UR-MK299 from Y1 receptor in human SK-N-MC cells
- Type: cell-based
- Run parameters: read-out: pKi (converted)
Measured attribute: Ki

Worked cases, Ki given:
H-RYRWRY-NH2 ... > 3160 nM
Ac-RGRLRY-NH2 ... > 3160 nM
Ac-RGYRWRY-NH2 ... > 3160 nM
Ac-RGWRLRY-NH2 ... > 1000 nM
Ac-RGYRLRW-NH2 ... > 1000 nM

In the following, a different substance is considered.
Problem: Give the measured Ki for Ac-RFRLRY-NH2
Result: > 1000 nM

====

- System tested: Neuropeptide Y receptor type 4 (Homo sapiens)
- Test: Agonist activity at human Y4R expressed in HEK293T cells co-expressing ARRB1 assessed as induction of beta-arrestin1 recruitment measured for 40 mins by D-luciferin based luminescence assay
- Assay type: cell-based, HEK-293T
- Run parameters: read-out: EC50
Measured attribute: EC50 (µM)

a = CN[C@@H](CCCNC(=N)N)C(=O)N[C@@H](CC(C)C)C(=O)N[C@@H](CCCNC(=N)N)C(=O)N[C@@H](Cc1ccc(O)cc1)C(N)=O
b = CC(C)C[C@H](NC(=O)[C@H](CCCNC(=N)N)NC(=O)[C@H](Cc1ccc(O)cc1)NC(=O)[C@@H](N)CCCNC(=N)N)C(=O)N[C@@H](CCCNC(=N)N)C(=O)N[C@@H](Cc1ccc(O)cc1)C(N)=O
c = CC(C)C[C@H](NC(=O)[C@H](CCCNC(=N)N)NC(=O)[C@H](Cc1ccc(O)cc1)NC(=O)[C@H](CCCNC(=N)N)NC(=O)CCC(=O)O)C(=O)N[C@@H](CCCNC(=N)N)C(=O)N[C@@H](Cc1ccc(O)cc1)C(N)=O
Problem: Sort the listed molecules above so the one with the largest EC50 comes first and the smallest comes last. Quick reminder: the answer is the labels in the order asked.
Result: a, c, b

====

- System tested: UniProt:P25929
- Test: Displacement of [3H]UR-MK299 from Y1 receptor in human SK-N-MC cells
- Format: cell-based
- Run parameters: read-out: Ki
Measured attribute: Ki

CC(C)C[C@H](NC(=O)[C@H](CCCNC(=N)N)NC(=O)[C@H](Cc1ccc(O)cc1)NC(=O)[C@@H](N)CCCNC(=N)N)C(=O)N[C@@H](CCCNC(=N)N)C(=O)N[C@@H](Cc1ccc(O)cc1)C(N)=O ... > 3 µM
CN[C@@H](CCCNC(=N)N)C(=O)N[C@@H](CC(C)C)C(=O)N[C@@H](CCCNC(=N)N)C(=O)N[C@@H](Cc1ccc(O)cc1)C(N)=O ... > 3 µM
CC(C)C[C@H](NC(=O)[C@H](CCCNC(=N)N)NC(=O)[C@H](Cc1ccc(O)cc1)NC(=O)[C@@H](N)CCCNC(=N)N)C(=O)N[C@@H](CCCNC(N)=O)C(=O)N[C@@H](Cc1ccc(O)cc1)C(N)=O ... > 3 µM
CC(=O)N[C@@H](CCCNC(=N)N)C(=O)N[C@@H](Cc1ccc(O)cc1)C(=O)N[C@@H](CCCNC(=N)N)C(=O)N[C@@H](CC(C)C)C(=O)N[C@@H](CCCNC(=N)N)C(=O)N[C@@H](Cc1ccc(O)cc1)C(N)=O ... > 3 µM

Problem: Give the measured Ki for CC(C)C[C@H](NC(=O)[C@H](CCCNC(=N)N)NC(=O)[C@H](Cc1ccc(O)cc1)NC(=O)[C@@H](N)CCCNC(N)=O)C(=O)N[C@@H](CCCNC(=N)N)C(=O)N[C@@H](Cc1ccc(O)cc1)C(N)=O
Result: > 3 µM

Problem: Give the measured Ki for CC(C)C[C@H](NC(=O)[C@H](CCCNC(=N)N)NC(=O)[C@H](Cc1ccc(O)cc1)NC(=O)[C@H](CCCNC(=N)N)NC(=O)CCC(=O)O)C(=O)N[C@@H](CCCNC(=N)N)C(=O)N[C@@H](Cc1ccc(O)cc1)C(N)=O
Result: > 0.3 µM

====

- System tested: Neuropeptide Y receptor type 4 (Homo sapiens)
- Test: Agonist activity at human Y4R expressed in HEK293T cells co-expressing ARRB1 assessed as induction of beta-arrestin1 recruitment measured for 40 mins by D-luciferin based luminescence assay
- Type: cell-based, HEK-293T
- Run parameters: read-out: EC50
pEC50: −log10 of the molar value.
# Lookup of reported pEC50 keyed by entry

Worked cases, pEC50 given:
Ac-RYRPRY-NH2 ... < 4.52
H-RYRARY-NH2 ... < 4.52

In the following, a different substance is considered.
Problem: Give the measured pEC50 for H-RYRGRY-NH2
Result: < 4.52

====

# Lookup of reported pEC50 keyed by entry
- System tested: Neuropeptide Y receptor type 4 (Homo sapiens, UniProt P50391)
- Test: Agonist activity at human Y4R expressed in HEK293T cells co-expressing ARRB2 assessed as induction of beta-arrestin2 recruitment measured for 40 mins by D-luciferin based luminescence assay
- Assay type: cell-based, HEK-293T
- Run parameters: read-out: EC50
pEC50: −log10 of the molar value.

CC(C)C[C@H](NC(=O)[C@@H](N)CCCNC(=N)N)C(=O)N[C@@H](CCCNC(=N)N)C(=O)N[C@H](Cc1ccc(O)cc1)C(N)=O ... < 4.52

Problem: Give the measured pEC50 for CC(=O)N[C@@H](CCCNC(=N)N)C(=O)N[C@@H](Cc1ccc(O)cc1)C(=O)N[C@@H](CCCNC(N)=O)C(=O)N[C@@H](CC(C)C)C(=O)N[C@@H](CCCNC(=N)N)C(=O)N[C@@H](Cc1ccc(O)cc1)C(N)=O
Result: < 4.52

Problem: Give the measured pEC50 for CC(C)C[C@H](NC(=O)[C@@H](N)CCCNC(=N)N)C(=O)N[C@H](CCCNC(=N)N)C(=O)N[C@@H](Cc1ccc(O)cc1)C(N)=O
Result: < 4.52
